target: TNFα / TNFα receptor (TNFα R1/Fc) (Homo sapiens, UniProt P01375); construct: purchased R&D Systems; test: Inhibition of binding of TNFα to the TNFα receptor (plate ELISA competition); settings: Table 2; read-out: Activity (IC50, inhibition of TNFα binding to TNFα R1/Fc)
Sequence (P01375 77-233 limits assumed, species assumed): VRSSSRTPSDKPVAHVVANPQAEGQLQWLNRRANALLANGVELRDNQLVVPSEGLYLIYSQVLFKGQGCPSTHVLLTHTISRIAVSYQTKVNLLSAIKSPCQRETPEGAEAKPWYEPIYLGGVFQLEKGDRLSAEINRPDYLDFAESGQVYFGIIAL
Numbered stars: 1 amine (or outer) side, 2 acyl side, 3 side chain; on linkers, the order of the positions; unused ones are H or OH. Bridge positions count the residues as written; N and C are the ends. Square brackets hold non-standard residues; d marks the D form. Peptide text beside a SMILES is read from it. * marks the point of attachment. Bip = N[C@@H](Cc1ccc(-c2ccccc2)cc1)C(=O)O; Phe(4-NH2) = Nc1ccc(C[C@H](N)C(=O)O)cc1; d2Thi = N[C@H](Cc1cccs1)C(=O)O; Suc = O=C(CCC(=O)[*:2])[*:1]; OtBu = CC(C)(C)O*
For each entry below, report its IC50 value.

# input compound: CC(C)(C)OC(=O)CC[C@H]1NC(=O)[C@H](Cc2ccc(-c3ccccc3)cc2)NC(=O)[C@@H](Cc2cccs2)NC(=O)CCC(=O)Nc2ccc(cc2)C[C@@H](C(=O)O)NC1=O [Compound 67] ([d2Thi][Bip][dE](OtBu)[Phe(4-NH2)]-OH; linker N-4 via Suc) ; wanted: its IC50
30 to 100 µM

Here is the next compound: "O=C(N[C@H](Cc1ccccc1)C(=O)O)[C@@H]1Cc2ccc(cc2)NC(=O)[C@H](O)[C@@H](O)C(=O)N[C@H](Cc2cccs2)C(=O)N[C@@H](Cc2ccc(-c3ccccc3)cc2)C(=O)N[C@H](Cc2ccccc2)C(=O)N1"
< 10 µM

Here is the next compound: "O=C(O)CCCNC(=O)[C@@H]1Cc2ccc(cc2)OCC(=O)N[C@@H](Cc2c[nH]c3ccccc23)C(=O)N[C@H](Cc2ccc(-c3ccccc3)cc2)C(=O)N[C@@H](Cc2ccccc2F)C(=O)N1"
< 10 µM

Here is the next compound: "O=C1COc2ccc(cc2)C[C@@H](C(=O)O)NC(=O)[C@H](Cc2ccc(F)cc2)NC(=O)[C@@H](Cc2ccc(-c3ccccc3)cc2)NC(=O)[C@H](Cc2cccs2)N1"
> 100 µM

Here is the next compound: "O=C1COc2ccc(cc2)C[C@@H](C(=O)N[C@H](Cc2ccccc2)C(=O)O)NC(=O)[C@H](CCc2ccccc2)NC(=O)[C@@H](Cc2ccc(-c3ccccc3)cc2)NC(=O)[C@H](Cc2ccc(-c3ccccc3)cc2)N1"
< 10 µM
